# Experimental System: human TNAP (Homo sapiens (Human), UniProt P05186)
# Sequence (P05186 18-502): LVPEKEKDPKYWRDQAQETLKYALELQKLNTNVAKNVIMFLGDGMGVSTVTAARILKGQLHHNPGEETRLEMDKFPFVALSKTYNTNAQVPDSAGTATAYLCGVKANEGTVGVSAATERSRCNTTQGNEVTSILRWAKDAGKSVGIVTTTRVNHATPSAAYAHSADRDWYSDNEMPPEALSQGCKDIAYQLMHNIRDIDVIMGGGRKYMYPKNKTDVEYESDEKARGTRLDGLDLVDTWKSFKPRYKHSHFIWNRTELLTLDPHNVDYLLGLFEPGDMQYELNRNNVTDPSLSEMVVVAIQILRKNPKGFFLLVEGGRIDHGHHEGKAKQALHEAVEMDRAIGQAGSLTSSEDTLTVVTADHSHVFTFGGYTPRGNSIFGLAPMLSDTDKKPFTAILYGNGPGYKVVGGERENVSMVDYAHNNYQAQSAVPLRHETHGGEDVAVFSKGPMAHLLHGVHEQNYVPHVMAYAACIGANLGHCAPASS
# Experiment Summary: Inhibitory test of TNAP activity (pNPP substrate, p-nitrophenol production)
# Conditions: inhibition of human TNAP activity, incubated at room temperature for 60 minutes
Assay Endpoint: IC50

stdin: Fill blank: measured IC50 of the compound COc1ccc(Cl)cc1S(=O)(=O)Nc1cnc2c(c1)C(=O)NC1(CC1)CO2 [Example 35] is ____.
stdout: 1.1 nM

stdin: Fill blank: measured IC50 of the compound COc1ccc(Cl)cc1S(=O)(=O)Nc1cnc2c(c1)C(=O)N[C@@H](CCO)CO2 [Example 33] is ____.
stdout: 1.9 nM

stdin: Fill blank: measured IC50 of the compound O=C1NCCOc2ncc(NS(=O)(=O)c3cc(Cl)ccc3OC(F)(F)F)cc21 [Example 13] is ____.
stdout: 3.4 nM

stdin: Fill blank: measured IC50 of the compound COc1ccc(F)cc1S(=O)(=O)Nc1cnc2c(c1)C(=O)NC1(CC1)CO2 [Example 36] is ____.
stdout: 2.2 nM

---

# Experimental System: human TNAP (Homo sapiens (Human))
# Experiment Summary: Inhibitory test of TNAP activity (pNPP substrate, p-nitrophenol production)
# Conditions: inhibition of human TNAP activity, incubated at room temperature for 60 minutes
# Method: COS 1 cells (DS Pharma Biomedical Co., Ltd.) were transfected with human TNAP (OriGene Technologies, Inc.) using Lipofectamine LTX & Plus reagent (Invitrogen Corp.). On the next day, the medium was replaced with a fresh medium, and the cells were cultured in an incubator for 3 days. […] Then, the absorbance (ABS: 405 nm) was measured using a microplate reader (model plus 384, Molecular Devices, LLC), and the concentration of produced p-nitrophenol was calculated.
pIC50: −log10 of the molar value.
Please note: YES applies when pIC50 is 8 or greater, and NO applies otherwise.

stdin: Would you say COc1ccc(Cl)cc1S(=O)(=O)Nc1cnc2c(c1)C(=O)N(C)[C@@H](C)CO2 [Example 18] shows pIC50 at minimum 8?
stdout: YES

stdin: Would you say COc1ccc(F)cc1S(=O)(=O)Nc1cnc2c(c1)C(=O)N[C@@H](CO)CO2 [Example 28] shows pIC50 at minimum 8?
stdout: YES

stdin: Would you say O=C1NC2(CC2)COc2ncc(NS(=O)(=O)c3cc(Cl)ccc3OC(F)(F)F)cc21 [Example 40] shows pIC50 at minimum 8?
stdout: YES

stdin: Would you say COc1ccc(Cl)cc1S(=O)(=O)Nc1cnc2c(c1)C(=O)N(C)[C@H](C)CO2 [Example 20] shows pIC50 at minimum 8?
stdout: NO

stdin: Would you say COc1ccc(Cl)cc1S(=O)(=O)Nc1cnc2c(c1)C(=O)N[C@@H](C)CO2 [Example 22] shows pIC50 at minimum 8?
stdout: YES

stdin: Would you say COc1ccc(Cl)cc1S(=O)(=O)Nc1cnc2c(c1)C(=O)N(c1ccccc1)CCO2 [Example 37] shows pIC50 at minimum 8?
stdout: NO

stdin: Would you say COc1ccc(Cl)cc1S(=O)(=O)Nc1cnc2c(c1)C(=O)N(C)CC(C)O2 (centres unmarked) [Example 14] shows pIC50 at minimum 8?
stdout: NO

stdin: Would you say COc1ccc(Cl)cc1S(=O)(=O)Nc1cnc2c(c1)C(=O)N[C@@H](CO)CO2 [Example 27] shows pIC50 at minimum 8?
stdout: YES

stdin: Would you say CCOc1ccc(F)cc1S(=O)(=O)Nc1cnc2c(c1)C(=O)NC1(CC1)CO2 [Example 42] shows pIC50 at minimum 8?
stdout: YES

stdin: Would you say COc1ccc(Cl)cc1S(=O)(=O)Nc1cnc2c(c1)C(=O)NCCO2 [Example 9] shows pIC50 at minimum 8?
stdout: YES

---

# Experimental System: human TNAP (Homo sapiens (Human))
# Experiment Summary: Inhibitory test of TNAP activity (pNPP substrate, p-nitrophenol production)
# Conditions: inhibition of human TNAP activity, incubated at room temperature for 60 minutes
Assay Endpoint: IC50 (µM)
Reply with just the number (in µM).

stdin: Fill blank: measured IC50 of the molecule COc1ccc(Cl)cc1S(=O)(=O)Nc1cnc2c(c1)C(=O)N(C(C)C)CCO2 [Example 5] is ____.
stdout: 0.0713

stdin: Fill blank: measured IC50 of the molecule COc1ccc(Cl)cc1S(=O)(=O)Nc1cnc2c(c1)C(=O)N(c1ccccn1)CCO2 [Example 38] is ____.
stdout: 0.0244

stdin: Fill blank: measured IC50 of the molecule COc1ccc(CN2CCOc3ncc(NS(=O)(=O)c4cc(Cl)ccc4OC)cc3C2=O)c(OC)c1 [Example 8] is ____.
stdout: 0.0091

stdin: Fill blank: measured IC50 of the molecule COc1ccc(Cl)cc1S(=O)(=O)Nc1cnc2c(c1)C(=O)N(c1cccnc1)CCO2 [Example 39] is ____.
stdout: 0.0132

stdin: Fill blank: measured IC50 of the molecule COc1ccc(OC)c(S(=O)(=O)Nc2cnc3c(c2)C(=O)NC2(CC2)CO3)c1 [Example 43] is ____.
stdout: 0.001

stdin: Fill blank: measured IC50 of the molecule COc1ccc(F)cc1S(=O)(=O)Nc1cnc2c(c1)C(=O)N(C)[C@H](C)CO2 [Example 21] is ____.
stdout: 0.046

stdin: Fill blank: measured IC50 of the molecule CC[C@H]1COc2ncc(NS(=O)(=O)c3cc(Cl)ccc3OC)cc2C(=O)N1 [Example 25] is ____.
stdout: 0.0017

stdin: Fill blank: measured IC50 of the molecule COc1ccc(F)cc1S(=O)(=O)Nc1cnc2c(c1)C(=O)N(C)CC(C)O2 (centres unmarked) [Example 15] is ____.
stdout: 0.0957

---

# Experimental System: human TNAP (Homo sapiens (Human), UniProt P05186)
# Experiment Summary: Inhibitory test of TNAP activity (pNPP substrate, p-nitrophenol production)
# Conditions: inhibition of human TNAP activity, incubated at room temperature for 60 minutes
Grouping by measured IC50 is done with the following cut points: lower bin = under 4 nM, middle bin = from 4 nM up to 7 nM, upper bin = 7 nM and over

stdin: For COc1ccc(F)cc1S(=O)(=O)Nc1cnc2c(c1)C(=O)N[C@@H](C)CO2 [Example 23] , which IC50 bin applies?
stdout: lower bin

stdin: For COc1ccc(Cl)cc1S(=O)(=O)Nc1cnc2c(c1)C(=O)N(CCO)CCO2 [Example 6] , which IC50 bin applies?
stdout: middle bin

stdin: For O=C1N[C@@H](CO)COc2ncc(NS(=O)(=O)c3cc(Cl)ccc3OC(F)(F)F)cc21 [Example 31] , which IC50 bin applies?
stdout: lower bin

stdin: For CCN1CCOc2ncc(NS(=O)(=O)c3cc(F)ccc3OC)cc2C1=O [Example 4] , which IC50 bin applies?
stdout: upper bin

stdin: For COc1ccc(Br)cc1S(=O)(=O)Nc1cnc2c(c1)C(=O)N[C@@H](CO)CO2 [Example 29] , which IC50 bin applies?
stdout: lower bin

stdin: For COc1ccc(F)cc1S(=O)(=O)Nc1cnc2c(c1)C(=O)N(C)C(C)CO2 (centres unmarked) [Example 17] , which IC50 bin applies?
stdout: upper bin

stdin: For COc1ccc(OC)c(S(=O)(=O)Nc2cnc3c(c2)C(=O)NCCO3)c1 [Example 11] , which IC50 bin applies?
stdout: middle bin

stdin: For COc1ccc(Cl)cc1S(=O)(=O)Nc1cnc2c(c1)C(=O)N[C@@H](C(C)C)CO2 [Example 26] , which IC50 bin applies?
stdout: upper bin

stdin: For COc1ccc(OC)c(S(=O)(=O)Nc2cnc3c(c2)C(=O)N[C@@H](CO)CO3)c1 [Example 30] , which IC50 bin applies?
stdout: lower bin

stdin: For COc1ccc(Cl)cc1S(=O)(=O)Nc1cnc2c(c1)C(=O)NC(c1cccnc1)CO2 (centres unmarked) [Example 44] , which IC50 bin applies?
stdout: lower bin

stdin: For COc1ccc(Cl)cc1S(=O)(=O)Nc1cnc2c(c1)C(=O)NC(C(=O)N1CCOCC1)CO2 (centres unmarked) [Example 46] , which IC50 bin applies?
stdout: upper bin

stdin: For CCN1CCOc2ncc(NS(=O)(=O)c3cc(Cl)ccc3OC)cc2C1=O [Example 3] , which IC50 bin applies?
stdout: upper bin

stdin: For COc1ccc(Cl)cc1S(=O)(=O)Nc1cnc2c(c1)C(=O)N(C)C(C)CO2 (centres unmarked) [Example 16] , which IC50 bin applies?
stdout: middle bin

stdin: For O=C1NC2(CC2)COc2ncc(NS(=O)(=O)c3cc(F)ccc3OC(F)(F)F)cc21 [Example 41] , which IC50 bin applies?
stdout: lower bin

---

# Experimental System: UniProt:P05186
# Experiment Summary: Inhibitory test of TNAP activity (pNPP substrate, p-nitrophenol production)
# Conditions: inhibition of human TNAP activity, incubated at room temperature for 60 minutes
Assay Endpoint: pIC50
pIC50 (log units): -log10 of the concentration in mol/L.

stdin: Request - read-out pIC50 | tested on UniProt:P05186 | compound COc1ccc(Cl)cc1S(=O)(=O)Nc1cnc2c(c1)C(=O)N(C)CCO2 [Example 1]
stdout: 8.20

stdin: Request - read-out pIC50 | tested on UniProt:P05186 | compound COc1ccc(Cl)cc1S(=O)(=O)Nc1cnc2c(c1)C(=O)NC(C(=O)N(C)C)CO2 (stereo not shown) [Example 45]
stdout: 7.84

stdin: Request - read-out pIC50 | tested on UniProt:P05186 | compound COc1ccc(F)cc1S(=O)(=O)Nc1cnc2c(c1)C(=O)N(C)[C@@H](C)CO2 [Example 19]
stdout: 8.19

stdin: Request - read-out pIC50 | tested on UniProt:P05186 | compound COc1ccccc1S(=O)(=O)Nc1cnc2c(c1)C(=O)NCCO2 [Example 12]
stdout: 7.87

stdin: Request - read-out pIC50 | tested on UniProt:P05186 | compound COc1ccc(Cl)cc1S(=O)(=O)Nc1cnc2c(c1)C(=O)N[C@@H](CC(=O)N(C)C)CO2 [Example 34]
stdout: 8.17

stdin: Request - read-out pIC50 | tested on UniProt:P05186 | compound COc1ccc(F)cc1S(=O)(=O)Nc1cnc2c(c1)C(=O)N(C)CCO2 [Example 2]
stdout: 7.90

stdin: Request - read-out pIC50 | tested on UniProt:P05186 | compound COCCN1CCOc2ncc(NS(=O)(=O)c3cc(Cl)ccc3OC)cc2C1=O [Example 7]
stdout: 7.97
